System: Mycobacterium tuberculosis (H37Rv)
Assay: Growth in liquid media in presence of test compound
Assay type: cell-based
Conditions: 50 mg/L
metric: Growth in the presence of test compound, M. tuberculosis

Worked cases, answers included:
| molecule | result |
| --- | --- |
| CC1(C)C2CC3OB([C@H](CCc4ccccc4)CNC(=O)[C@H](N)CCCCN)O[C@]3(C)C1C2 (stereo partly drawn) | − |
| CC(NC(=O)C(N)CCCCN)C(Cc1ccccc1)B1OC2CC3CC(C3(C)C)C2(C)O1 (stereo not drawn) | − |
| CC1(C)C2CC3OB(CC(Cc4ccccc4)NC(=O)C(N)CCCCN)OC3(C)C1C2 (stereo not drawn) [Compound 1] | − |
| C[C@H](N)C(=O)N[C@@H](CB(O)O)Cc1ccccc1 | + |
| Cl.Cl.NCCCC[C@H](N)C(=O)NC[C@@H](Cc1ccc(F)cc1)B(O)O | − |

Report Growth in the presence of test compound, M. tuberculosis, nothing else, for this molecule: CC1(C)C2CC3OB(CC(Cc4ccccc4)NC(=O)C(N)Cc4ccccc4)OC3(C)C1C2 (stereo not drawn)
+

Respond only with Growth in the presence of test compound, M. tuberculosis recorded for N[C@@H](Cc1ccccc1)C(=O)N[C@@H](CB(O)O)Cc1ccccc1
−

Please give the documented Growth in the presence of test compound, M. tuberculosis of CC1(C)C2CC3OB([C@@H](CNC(=O)[C@@H](N)CCCCN)Cc4ccccc4)O[C@]3(C)C1C2 (stereo partly drawn)
−

Complete the entry with Growth in the presence of test compound, M. tuberculosis for Cl.N[C@@H](Cc1ccccc1)C(=O)NC[C@@H](Cc1ccc(F)cc1)B(O)O
−

----------
System: Mycobacterium tuberculosis (H37Rv)
Test: Growth in liquid media in presence of test compound
Assay type: cell-based
Details: 50 mg/L
metric: Growth in the presence of test compound, M. tuberculosis

Recorded Growth in the presence of test compound, M. tuberculosis, per entry:
| molecule | result |
| --- | --- |
| CC1(C)C2CC3OB([C@@H](CNC(=O)[C@@H](N)Cc4ccccc4)c4ccccc4)O[C@]3(C)C1C2 (stereo partly shown) [Compound 23] | + |
| CC1(C)C2CC3OB([C@@H](CNC(=O)[C@@H](N)CCCNC(=N)N)Cc4ccccc4)O[C@]3(C)C1C2 (stereo partly shown) [Compound 11] | − |
| CC1(C)C2CC3OB(C(CNC(=O)C(N)CCCCN)Cc4ccc(OC(F)(F)F)cc4)OC3(C)C1C2.Cl.Cl (stereo not shown) [Compound 47] | − |
| CC1(C)C2CC3OB(C(CNC(=O)C(N)CCCCN)Cc4ccccc4)OC3(C)C1C2 (stereo not shown) [Compound 13] | − |
| C[C@@H](B1OC2CC3CC(C3(C)C)[C@@]2(C)O1)[C@@H](Cc1ccccc1)NC(=O)[C@@H]1CCCN1 (stereo partly shown) [Compound 29] | + |
| CC1(C)C2CC3OB([C@@H](CNC(=O)[C@@H](N)Cc4ccccc4)Cc4ccc(OC(F)(F)F)cc4)O[C@]3(C)C1C2.Cl (stereo partly shown) [Compound 55] | − |

# input for lookup
Please tell me the measured Growth in the presence of test compound, M. tuberculosis for C[C@H](CNC(=O)[C@@H](N)Cc1ccccc1)B1OC2CC3CC(C3(C)C)[C@@]2(C)O1 (stereo partly shown) [Compound 17] ; system: Mycobacterium tuberculosis (H37Rv).
+
